Cited source: ChEMBL document CHEMBL4619809

- EXPERIMENTAL_TARGET: Protein cereblon/Wee1-like protein kinase (Homo sapiens) (UniProt P30291+Q96SW2)
- Sequence (P30291 whole entry, looked up): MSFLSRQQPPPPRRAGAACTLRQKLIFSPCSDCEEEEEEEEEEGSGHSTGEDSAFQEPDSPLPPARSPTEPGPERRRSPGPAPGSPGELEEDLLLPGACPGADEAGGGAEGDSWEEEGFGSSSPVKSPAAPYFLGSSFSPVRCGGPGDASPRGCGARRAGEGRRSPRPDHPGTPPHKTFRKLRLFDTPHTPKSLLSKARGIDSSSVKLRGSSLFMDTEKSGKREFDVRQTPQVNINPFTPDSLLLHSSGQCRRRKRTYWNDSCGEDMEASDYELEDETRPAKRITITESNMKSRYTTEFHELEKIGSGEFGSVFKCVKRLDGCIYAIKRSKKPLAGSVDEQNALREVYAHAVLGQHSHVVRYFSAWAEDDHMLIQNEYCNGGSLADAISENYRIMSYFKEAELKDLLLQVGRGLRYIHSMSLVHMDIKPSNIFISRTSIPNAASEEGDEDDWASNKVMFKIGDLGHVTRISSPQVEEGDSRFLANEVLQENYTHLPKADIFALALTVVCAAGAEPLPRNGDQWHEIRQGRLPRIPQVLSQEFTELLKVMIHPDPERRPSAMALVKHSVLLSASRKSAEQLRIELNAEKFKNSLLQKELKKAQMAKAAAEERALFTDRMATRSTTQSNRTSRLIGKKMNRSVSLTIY
- Sequence (Q96SW2 whole entry, looked up): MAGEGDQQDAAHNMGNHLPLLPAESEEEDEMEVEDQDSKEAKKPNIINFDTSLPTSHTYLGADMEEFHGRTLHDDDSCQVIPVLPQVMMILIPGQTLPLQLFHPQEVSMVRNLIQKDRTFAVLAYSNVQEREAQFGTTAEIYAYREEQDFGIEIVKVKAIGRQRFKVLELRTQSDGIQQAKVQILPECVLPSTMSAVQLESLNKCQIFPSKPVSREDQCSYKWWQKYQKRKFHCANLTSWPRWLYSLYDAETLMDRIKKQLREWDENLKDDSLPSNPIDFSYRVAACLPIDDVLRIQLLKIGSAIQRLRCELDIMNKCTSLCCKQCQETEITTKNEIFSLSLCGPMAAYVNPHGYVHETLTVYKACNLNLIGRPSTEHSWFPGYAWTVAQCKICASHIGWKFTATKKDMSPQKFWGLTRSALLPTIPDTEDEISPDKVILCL
- PROCEDURE_SUMMARY: Protac activity at CRBN/WEE1 in human MOLT4 cells assessed as induction of degradation of WEE1 at 1 uM incubated for 6 hrs by immunoblot analysis relative to control
- Type: cell-based
- CONDITION_DETAILS: MOLT-4
READOUT_LABEL: Activity

Check out these entries, answers already filled in.
C=CCn1c(=O)c2cnc(Nc3ccc(N4CCN(C(=O)CCOCCOCCNc5cccc6c5C(=O)N(C5CCC(=O)NC5=O)C6)CC4)cc3)nc2n1-c1cccc(C(C)(C)O)n1 (stereo not drawn) :: 25 to 50%
C=CCn1c(=O)c2cnc(Nc3ccc(N4CCN(CCCNc5cccc6c5C(=O)N(C5CCC(=O)NC5=O)C6=O)CC4)cc3)nc2n1-c1cccc(C(F)(F)F)n1 (stereo not drawn) :: > 50%

Please look at the following molecule next.
[in] Complete the entry with Activity for `C=CCn1c(=O)c2cnc(Nc3ccc(N4CCN(C(=O)CCOCCOCCOCCN5CCN(Cc6ccc(COc7cccc8c7CN([C@H]7CCC(=O)NC7=O)C8=O)cc6)CC5)CC4)cc3)nc2n1-c1cccc(C(C)(C)O)n1`
[out] > 50%
